Listing of entries alongside the reported fluorescence slope.
biological target: Voltage-gated potassium channel subunit beta-2 (Rattus norvegicus); test: inhibitors of rat Kvbeta2 reductase activity – biochemical, NADPH fluorescence, primary screen (AID 622); conditions: recombinant KvBeta, 4-cyanobenzaldehyde reduction, at 10 µM, hits give high values;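 further: slope of raw intensity against log time taken from 70 to 1610 s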
Reply briefly: the number, and no unit.

Completed entries (count: 5):
CN1CCc2c(sc3c2c(=O)n(-c2ccccc2)c2nnc(SCc4ccc(F)cc4)n32)C1 | -0.608
Cc1nc2ccc(CCO)cc2s1 | -0.652
Cc1nc2ccc(S(=O)(=O)NC(C(=O)N3CCCC3)C(C)C)cc2s1 (stereo unspecified) | -0.613
CCSc1nnc(NC(=O)c2csc(C)c2)s1 | -0.592
c1ccc2c(c1)Cc1cc(CN3CCOCC3)ccc1-2 | -0.415

Now for a further molecule.
Summary for this molecule, CCOc1ccc2nc(NC(=O)CSc3nc4ccccc4c(=O)n3Cc3ccco3)sc2c1 : fluorescence slope is -0.413
